Tested on: MS2 coat protein
Experiment: apparent KD of MS2 coat protein; designed switch direction (-1 OFF switch, 1 ON switch): -1; higher = weaker reporter binding
Conditions: input ligand: FMN 200 uM
Output YES for apparent KD of MS2 coat protein not less than 80 nM; output NO otherwise.

Look over these answered cases.
[[record]]
macromolecule_sequence = "GGAUAUAACGUAGGAUAUCUGAGAAACAGACGAAGAGAAGGACGACAUGAGGAUCACCCAUGUGAUCUAUCAAUAUUAUACAUG [Prohibition 99 - Jieux - Exclusion NG 1] (Eterna round: R96, puzzle: Exclusion NG 1)"
label_value = "YES"

[[record]]
macromolecule_sequence = "CUGAAAGACGAAGGAUAUCCAGGCGCCGGCGUAGGAGAAGGUCGUCCGGGUGUCCUAGAACUUGAGGAUCACCCAAGUAGAAGA [Mutated MS2 EX1.14] (Eterna round: R96, puzzle: Exclusion NG 1)"
label_value = "NO"

[[record]]
macromolecule_sequence = "GAUUAAUUAAUUAAUUAAUACAUGAGGAUCACCCAUGUAAUUUAAGAUCCUUAUACAAGCUUUGAUCUCGUAAUUAA [Stov1/4-A3] (Eterna round: R97, puzzle: Sensor, turn-off variant 1)"
label_value = "YES"


With those in mind, consider the next sequence.
Query :: Test whether the sequence UAUUCGCAAGUGAGAUCCCACAUGAGGAUCACCCAUGUGCUCGUCUUAUAAGGUACUGUGACGAAAGUCACGGUACC [Sensor 3, v1 - 91 v23] (Eterna round: R97, puzzle: Sensor, turn-off variant 1) records apparent KD of MS2 coat protein of 80 nM or higher.
Result :: NO
